All values here come from ChEMBL document CHEMBL5126677.

- Experimental target: Tyrosine-protein kinase JAK2 (Homo sapiens, UniProt O60674)
- Sequence (O60674 whole entry): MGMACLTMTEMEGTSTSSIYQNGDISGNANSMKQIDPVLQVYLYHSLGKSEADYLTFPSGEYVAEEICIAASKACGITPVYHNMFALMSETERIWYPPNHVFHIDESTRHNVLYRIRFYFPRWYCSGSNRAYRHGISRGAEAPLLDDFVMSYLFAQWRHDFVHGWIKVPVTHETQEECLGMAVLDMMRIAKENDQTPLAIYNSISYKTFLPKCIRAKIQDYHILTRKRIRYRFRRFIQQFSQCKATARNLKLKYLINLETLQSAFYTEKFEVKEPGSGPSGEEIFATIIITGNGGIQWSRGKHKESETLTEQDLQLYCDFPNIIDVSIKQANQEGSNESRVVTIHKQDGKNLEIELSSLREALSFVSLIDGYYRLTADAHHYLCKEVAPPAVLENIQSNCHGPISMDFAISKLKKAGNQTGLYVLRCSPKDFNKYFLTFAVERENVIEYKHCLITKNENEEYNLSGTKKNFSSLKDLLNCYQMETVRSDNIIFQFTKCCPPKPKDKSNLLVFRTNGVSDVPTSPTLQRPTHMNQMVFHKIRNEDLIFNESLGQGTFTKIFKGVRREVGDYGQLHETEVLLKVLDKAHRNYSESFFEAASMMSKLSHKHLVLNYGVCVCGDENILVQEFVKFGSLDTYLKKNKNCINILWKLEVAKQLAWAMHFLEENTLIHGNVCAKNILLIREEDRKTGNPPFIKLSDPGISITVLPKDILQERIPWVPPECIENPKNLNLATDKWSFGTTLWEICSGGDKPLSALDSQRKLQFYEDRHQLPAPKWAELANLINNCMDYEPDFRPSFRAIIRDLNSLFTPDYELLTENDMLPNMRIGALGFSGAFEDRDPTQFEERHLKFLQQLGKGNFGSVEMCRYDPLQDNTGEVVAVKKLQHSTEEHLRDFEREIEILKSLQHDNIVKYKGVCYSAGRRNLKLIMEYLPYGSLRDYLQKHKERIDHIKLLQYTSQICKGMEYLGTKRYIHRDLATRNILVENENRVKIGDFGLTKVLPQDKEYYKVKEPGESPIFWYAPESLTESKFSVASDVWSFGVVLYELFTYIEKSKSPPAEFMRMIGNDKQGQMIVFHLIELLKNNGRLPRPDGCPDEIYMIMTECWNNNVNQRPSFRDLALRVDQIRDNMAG
- Assay details: Binding affinity to wild type JAK2 JH2 (unknown origin) expressed in baculovirus infected Sf9 insect cells incubated for 20 hrs by competitive fluorescence polarization assay
Reported endpoint: Kd (µM)

Example results:
Smiles record: CNC(=O)c1ccc(Nc2nc(N)n(C(=O)c3c(F)cccc3F)n2)cc1
Measurement unit: µM
Kd: 0.263
--
Smiles record: C/C=C/C(=O)NCCc1ccc(F)c(C(=O)n2nc(Nc3ccc(C(=O)NC)cc3)nc2N)c1F
Measurement unit: µM
Kd: 0.565
--
Smiles record: C=CC(=O)NCCc1cc(F)c(C(=O)n2nc(Nc3ccc(C(=O)NC)cc3)nc2N)c(F)c1
Measurement unit: µM
Kd: 0.075

A: C=CC(=O)NCCOc1ccc(F)c(C(=O)n2nc(Nc3ccc(C(=O)NC)cc3)nc2N)c1F
B: C=CC(=O)NCc1ccc(F)c(C(=O)n2nc(Nc3ccc(C(=O)NC)cc3)nc2N)c1F
Quick one: lower Kd, A or B ? Identify your pick by its label. A
(A: 0.154 µM, B: 0.8 µM)

---

- Experimental target: Tyrosine-protein kinase JAK2 (Homo sapiens, UniProt O60674)
- Assay details: Binding affinity to wild type JAK2 JH1 (unknown origin) expressed in baculovirus infected Sf9 insect cells incubated for 30 mins by competitive fluorescence polarization assay
Reported endpoint: Kd (µM)

Smiles record: C=CC(=O)NCCc1cc(F)c(C(=O)n2nc(Nc3ccc(C(=O)NC)cc3)nc2N)c(F)c1
Experimental target: Tyrosine-protein kinase JAK2 (Homo sapiens, UniProt O60674)
Kd, µM: 0.83

P: C=CC(=O)NCCc1ccc(F)c(C(=O)n2nc(Nc3ccc(C(=O)NC)cc3)nc2N)c1F
Q: C=CC(=O)NCCOc1ccc(F)c(C(=O)n2nc(Nc3ccc(C(=O)NC)cc3)nc2N)c1F
Quick one: lower Kd, P or Q ? Identify your pick by its label. P

---

- Experimental target: Tyrosine-protein kinase JAK2 (Homo sapiens, UniProt O60674)
- Assay details: Binding affinity to wild type JAK2 JH2 (unknown origin) expressed in baculovirus infected Sf9 insect cells incubated for 30 mins by competitive fluorescence polarization assay
Reported endpoint: Kd (nM)

Smiles record: C=CC(=O)NCCc1ccc(F)c(C(=O)n2nc(Nc3ccc(C(=O)NC)cc3)nc2N)c1F
Kd / nM: 556
//
Smiles record: CNC(=O)c1ccc(Nc2nc(N)n(C(=O)c3c(F)cccc3F)n2)cc1
Kd / nM: 171
//
Smiles record: C=CC(=O)NCc1ccc(F)c(C(=O)n2nc(Nc3ccc(C(=O)NC)cc3)nc2N)c1F
Kd / nM: 1250

a: C=CC(=O)NCCOc1ccc(F)c(C(=O)n2nc(Nc3ccc(C(=O)NC)cc3)nc2N)c1F
b: C=CC(=O)NCCc1cc(F)c(C(=O)n2nc(Nc3ccc(C(=O)NC)cc3)nc2N)c(F)c1
Please tell me which of the two, a or b , has the higher reported Kd value. Identify your pick by its label. a
(a: 617 nM, b: 242 nM)
